Below is a list of entries, each paired with its recorded IC50 value.
- Tested On: CDK2/Cyclin E1 (Homo sapiens, UniProt P24941)
- Assay Name: ADP-Glo Luminescent Kinase Assay (CDK2/E1-37C)
- Assay type: biochemical
- Condition Label: 0.18 nM CDK2/Cyclin E1, 100 μM ATP, 1.5 μM Histone H1, 37° C., 60 min pre-incubation; read-out: ADPGLO (CDK2/E1-37C): IC50

Known IC50 results, listed for orientation:
C[C@@H](OCC12CCC(CC1)OC2)[C@H](NC(=O)[C@@H]1CN(C(=O)c2cnn(Cc3ccc(C(F)(F)F)cc3)c2)CC12CN(C(=O)C1(C(F)(F)F)CC1)C2)C(=O)N1CCC(C#N)CC1 [Example I-25] ... < 500 nM
Cc1oc(=O)oc1COC(=O)C(C)(C)CNC(=O)[C@@H](NC(=O)[C@@H]1CN(C(=O)c2cnn(Cc3ccccc3)c2)CC12CN(C(=O)[C@H]1CC1(C)C)C2)[C@@H](C)OCC1CCCCC1 [Example I-32] ... < 500 nM
C[C@@H](OCC1CCCCC1)[C@H](NC(=O)[C@@H]1CN(C(=O)c2cnn(Cc3ccccc3)c2)CC12CN(C(=O)[C@H]1CC1(C)C)C2)C(=O)N1CCC(c2ccc(C(=O)O)cc2)CC1 [Example I-45] ... < 500 nM
C[C@@H](OCC12CCC(CC1)OC2)[C@H](NC(=O)[C@@H]1CN(C(=O)c2cncs2)CC12CN(CC1CCCO1)C2)C(=O)N1CCC(c2nccs2)CC1 (stereo partly shown) [Example I-44] ... > 100000 nM
CC1(C)C[C@@H]1C(=O)N1CC2(CN(C(=O)c3cncs3)C[C@H]2C(=O)N2CCC[C@@H](N(CC(=O)O)CC3CCCCC3)C2)C1 [Example I-71] ... > 10000 nM
C[C@@H](OCC1CCCCC1)[C@H](NC(=O)[C@@H]1CN(C(=O)c2cnn(CC3CCCCC3)c2)CC12CN(C(=O)[C@H]1CC1(C)C)C2)C(=O)N1CCC(c2ccc(C(=O)O)cc2)CC1 [Example I-30] ... < 500 nM
C[C@@H](OCC1CCCCC1)[C@H](NC(=O)[C@@H]1CN(C(=O)c2cnn(Cc3ccccc3)c2)CC12CN(C(=O)[C@H]1CC1(C)C)C2)C(=O)NS(=O)(=O)c1ccc(F)cc1F [Example I-26] ... < 500 nM
COC(=O)c1ccc(N2CCN(C(=O)[C@@H](NC(=O)[C@@H]3CN(C(=O)c4cnn(Cc5ccccc5)c4)CC34CN(C(=O)[C@H]3CC3(C)C)C4)[C@@H](C)OCC3CCCCC3)CC2)cc1 [Example I-31] ... < 500 nM

Prompt line: So what does the record say about IC50 for Cc1cc(C2CCN(C(=O)[C@@H](NC(=O)[C@@H]3CN(C(=O)c4cnn(Cc5ccc(C(F)(F)F)cc5)c4)CC34CN(C(=O)C3(C(F)(F)F)CC3)C4)[C@@H](C)OCC34CCC(CC3)OC4)CC2)cc(C(F)(F)F)c1OCC(=O)O [Example I-104] ?
Response line: < 500 nM

Prompt line: Consider the compound shown here: C[C@@H](OCC1(C(F)(F)F)CC1)[C@H](NC(=O)[C@@H]1CN(C(=O)c2cnn(Cc3ccc(C(F)(F)F)cc3)c2)CC12CN(C(=O)C1(C(F)(F)F)CC1)C2)C(=O)N1CCC(c2ccc(C(=O)O)cc2)CC1 [Example I-68] What is its recorded IC50?
Response line: 500 to 5000 nM

Prompt line: Name the recorded IC50 for C[C@@H](OCC1CCCCC1)[C@H](NC(=O)[C@@H]1CN(C(=O)c2cnn(Cc3ccc(C(F)(F)F)cc3)c2)CC12CN(C(=O)[C@H]1CC1(C)C)C2)C(=O)N1CCC(c2ccc(C(=O)O)cc2)CC1 [Example I-29] .
Response line: < 500 nM

Prompt line: Suppose we examine the compound C[C@@H](OCC12CCC(CC1)OC2)[C@H](NC(=O)[C@@H]1CN(C(=O)c2cnn(Cc3ccccc3C(=O)O)c2)CC12CN(C(=O)C1(C(F)(F)F)CC1)C2)C(=O)N1CCNCC1 [Example I-109] ; what IC50 value has been reported?
Response line: < 500 nM

Prompt line: Query: IC50; subject: COC(=O)[C@@H](NC(=O)[C@@H]1CN(C(=O)c2cnn(Cc3ccccc3)c2)CC12CN(C(=O)[C@H]1CC1(C)C)C2)[C@@H](C)OCC1CCC2(CCC2)CC1 [Example I-43]
Response line: < 500 nM
